FYI, the data here is from patent US12522588B2.

Property: percentage damage caused to the plant, AMARE; scope: individual compounds
system: Amaranthus retoflexus (AMARE); experiment: Pre-emergence test, glasshouse; format: in vivo; conditions: 250 g/ha, evaluated after 13 days, Table B2

query: Fill in the blank: the reported percentage damage caused to the plant, AMARE of FC(F)(F)c1ccc(-n2nc(C(F)(F)F)cc2Oc2ncc(Br)cn2)cc1 is ____.
result: 3 (3=41-60%)

Continuing:
query: Which percentage damage caused to the plant, AMARE is listed for Fc1ccccc1-n1nc(C(F)(F)F)cc1Oc1ncc(Cl)cn1 ?
result: 2 (2=21-40%)

query: Quick check: percentage damage caused to the plant, AMARE of Cc1ncc(-n2nc(C(F)(F)F)cc2Oc2ncc(Cl)cn2)cn1 ?
result: 5 (5=81-100%)

query: // lookup percentage damage caused to the plant, AMARE for FC(F)(F)c1cc(Oc2ncc(Cl)cn2)n(-c2cccc(Cl)c2)n1
result: 5 (5=81-100%)

query: So what does the record say about percentage damage caused to the plant, AMARE for Cc1ccc(-n2nc(C(F)(F)F)cc2Oc2ncc(Cl)cn2)nn1 ?
result: 3 (3=41-60%)

query: Any idea what its percentage damage caused to the plant, AMARE is? The compound is Cc1ccc(-n2nc(C(F)(F)F)cc2Oc2ncc(Cl)cn2)cc1
result: 3 (3=41-60%)

query: Any idea what its percentage damage caused to the plant, AMARE is? The compound is FC(F)(F)c1cccc(-n2nc(C(F)(F)F)cc2Oc2ncc(Cl)cn2)c1
result: 5 (5=81-100%)

----------
test system: Ipomoea hederacea (IPOHE); assay: Pre-emergence test, glasshouse; type: in vivo; conditions: 250 g/ha, evaluated after 13 days, Table B2
Measure: percentage damage caused to the plant, IPOHE

Study these solved cases before continuing.
query: Item under review: Fc1ccccc1-n1nc(C(F)(F)F)cc1Oc1ncc(Cl)cn1 . Reported percentage damage caused to the plant, IPOHE?
result: 1 (1=0-20%)

query: Please look up its percentage damage caused to the plant, IPOHE: FC(F)(F)c1cc(Oc2ncc(Cl)cn2)n(-c2cccc(Cl)c2)n1
result: 1 (1=0-20%)

query: Looking for the measured percentage damage caused to the plant, IPOHE of FC(F)(F)c1ccc(-n2nc(C(F)(F)F)cc2Oc2ncc(Cl)cn2)cc1 , can you help?
result: 5 (5=81-100%)

query: Recorded percentage damage caused to the plant, IPOHE for Fc1cnc(Oc2cc(C(F)(F)F)nn2-c2ccc(C(F)(F)F)cc2)nc1 , please?
result: 2 (2=21-40%)

Lab note: next molecule to report on.
query: Item FC(F)Oc1ccc(-n2nc(C(F)(F)F)cc2Oc2ncc(Cl)cn2)cc1 has what recorded percentage damage caused to the plant, IPOHE?
result: 1 (1=0-20%)

----------
test system: Amaranthus retoflexus (AMARE); experiment: Pre-emergence test, glasshouse; type: in vivo; conditions: 250 g/ha, evaluated after 13 days, Table B2
Measure: percentage damage caused to the plant, AMARE

Solved cases below.
query: // query percentage damage caused to the plant, AMARE value for entry FC(F)(F)c1ccc(-n2nc(C(F)(F)F)cc2Oc2ncc(Cl)cn2)cc1
result: 5 (5=81-100%)

query: Bench note: what percentage damage caused to the plant, AMARE did Cc1cnc(Oc2cc(C(F)(F)F)nn2-c2ccc(C(F)(F)F)cc2)nc1 show?
result: 5 (5=81-100%)

query: // returns reported percentage damage caused to the plant, AMARE for input Fc1cnc(Oc2cc(C(F)(F)F)nn2-c2ccc(C(F)(F)F)cc2)nc1
result: 5 (5=81-100%)

query: Which percentage damage caused to the plant, AMARE is reported for this molecule? FC(F)c1cc(Oc2ncc(Cl)cn2)n(-c2ccc(C(F)(F)F)cc2)n1
result: 4 (4=61-80%)

query: Please look up its percentage damage caused to the plant, AMARE: FC(F)Oc1ccc(-n2nc(C(F)(F)F)cc2Oc2ncc(Cl)cn2)cc1
result: 2 (2=21-40%)

Moving on to another molecule below.
query: # get_value(readout='percentage damage caused to the plant, AMARE', item= FC(F)(F)c1cc(Oc2ncc(Cl)cn2)n(-c2ccc(Cl)cc2)n1 )
result: 5 (5=81-100%)
